Origin of measurements: the supplement of paper PMC9112550

Provide the reported shrunken log2 fold change of each item.
# System: Escherichia coli TOP10;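 further: peptides expressed intracellularly from a pBAD plasmid library in pooled LB shake-flask culture, induced with 0.3% L-arabinose, DNA abundance read by NGS, three biological replicates, DESeq2 with apeglm shrinkage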
# ASSAY METHOD TEXT: shrunken log2 fold change of peptide-encoding DNA abundance (4.5 h post-induction vs induction); higher = less antimicrobial activity (less host growth inhibition)
# COND: time post-induction: 4.5 h; library: site-saturation at positions 5, 18, 19, 20
Output spec: single numeric token, no unit.

Hey, Escherichia coli TOP10 data for RRIRCRPPRLPRPRPRPHLVPRP : shrunken log2 fold change came out at 0.565

Hey, Escherichia coli TOP10 data for RRIRLRPPRLPRPRPRPNGDPRP : shrunken log2 fold change came out at -0.00192

Hey, Escherichia coli TOP10 data for RRIRSRPPRLPRPRPRPYWSPRP : shrunken log2 fold change came out at -0.414

Hey, Escherichia coli TOP10 data for RRIRMRPPRLPRPRPRPFVKPRP : shrunken log2 fold change came out at -1.03

Hey, Escherichia coli TOP10 data for RRIRERPPRLPRPRPRPIRKPRP : shrunken log2 fold change came out at -0.108

Hey, Escherichia coli TOP10 data for RRIRHRPPRLPRPRPRPPNCPRP : shrunken log2 fold change came out at -0.19

Hey, Escherichia coli TOP10 data for RRIRSRPPRLPRPRPRPKKWPRP : shrunken log2 fold change came out at 0.0341

Hey, Escherichia coli TOP10 data for RRIRVRPPRLPRPRPRPQKFPRP : shrunken log2 fold change came out at -0.278

Hey, Escherichia coli TOP10 data for RRIRMRPPRLPRPRPRPNSHPRP : shrunken log2 fold change came out at -0.451

Hey, Escherichia coli TOP10 data for RRIRFRPPRLPRPRPRPALFPRP : shrunken log2 fold change came out at 0.173

Hey, Escherichia coli TOP10 data for RRIRKRPPRLPRPRPRPTLLPRP : shrunken log2 fold change came out at 0.083

Hey, Escherichia coli TOP10 data for RRIRPRPPRLPRPRPRPCADPRP : shrunken log2 fold change came out at 0.213

Hey, Escherichia coli TOP10 data for RRIRMRPPRLPRPRPRPPPGPRP : shrunken log2 fold change came out at 1.86

Hey, Escherichia coli TOP10 data for RRIRVRPPRLPRPRPRPAHMPRP : shrunken log2 fold change came out at -0.103

Hey, Escherichia coli TOP10 data for RRIRDRPPRLPRPRPRPIDHPRP : shrunken log2 fold change came out at -0.273

Hey, Escherichia coli TOP10 data for RRIRIRPPRLPRPRPRPMICPRP : shrunken log2 fold change came out at -0.224

Hey, Escherichia coli TOP10 data for RRIRQRPPRLPRPRPRPTSCPRP : shrunken log2 fold change came out at -0.0676

Hey, Escherichia coli TOP10 data for RRIRARPPRLPRPRPRPHGTPRP : shrunken log2 fold change came out at -0.0246

Hey, Escherichia coli TOP10 data for RRIRMRPPRLPRPRPRPQWPPRP : shrunken log2 fold change came out at -0.132

Hey, Escherichia coli TOP10 data for RRIRQRPPRLPRPRPRPRLQPRP : shrunken log2 fold change came out at 0.501

Hey, Escherichia coli TOP10 data for RRIRFRPPRLPRPRPRPDQQPRP : shrunken log2 fold change came out at -0.078

Hey, Escherichia coli TOP10 data for RRIRMRPPRLPRPRPRPEPKPRP : shrunken log2 fold change came out at 2.51

Hey, Escherichia coli TOP10 data for RRIRCRPPRLPRPRPRPFAKPRP : shrunken log2 fold change came out at -0.108

Hey, Escherichia coli TOP10 data for RRIRTRPPRLPRPRPRPWQMPRP : shrunken log2 fold change came out at -0.0135

Hey, Escherichia coli TOP10 data for RRIRSRPPRLPRPRPRPVEFPRP : shrunken log2 fold change came out at -0.928

Hey, Escherichia coli TOP10 data for RRIRWRPPRLPRPRPRPIFPPRP : shrunken log2 fold change came out at 0.13

Hey, Escherichia coli TOP10 data for RRIRMRPPRLPRPRPRPFEVPRP : shrunken log2 fold change came out at -0.0748

Hey, Escherichia coli TOP10 data for RRIRFRPPRLPRPRPRPMMYPRP : shrunken log2 fold change came out at -0.104

Hey, Escherichia coli TOP10 data for RRIRKRPPRLPRPRPRPQFKPRP : shrunken log2 fold change came out at -0.037

Hey, Escherichia coli TOP10 data for RRIRTRPPRLPRPRPRPGHVPRP : shrunken log2 fold change came out at -0.144

Hey, Escherichia coli TOP10 data for RRIRERPPRLPRPRPRPKFKPRP : shrunken log2 fold change came out at -0.355

Hey, Escherichia coli TOP10 data for RRIRWRPPRLPRPRPRPWDVPRP : shrunken log2 fold change came out at 0.0249

Hey, Escherichia coli TOP10 data for RRIRNRPPRLPRPRPRPVYIPRP : shrunken log2 fold change came out at -0.434

Hey, Escherichia coli TOP10 data for RRIRWRPPRLPRPRPRPDDHPRP : shrunken log2 fold change came out at 0.0959

Hey, Escherichia coli TOP10 data for RRIRTRPPRLPRPRPRPSQRPRP : shrunken log2 fold change came out at 0.0168

Hey, Escherichia coli TOP10 data for RRIRHRPPRLPRPRPRPYDPPRP : shrunken log2 fold change came out at -0.00884

Hey, Escherichia coli TOP10 data for RRIRDRPPRLPRPRPRPIIQPRP : shrunken log2 fold change came out at -0.0678

Hey, Escherichia coli TOP10 data for RRIRDRPPRLPRPRPRPILVPRP : shrunken log2 fold change came out at 0.0243

Hey, Escherichia coli TOP10 data for RRIRFRPPRLPRPRPRPLVYPRP : shrunken log2 fold change came out at -0.631

Hey, Escherichia coli TOP10 data for RRIRTRPPRLPRPRPRPHNCPRP : shrunken log2 fold change came out at -0.113

Hey, Escherichia coli TOP10 data for RRIRHRPPRLPRPRPRPNPNPRP : shrunken log2 fold change came out at -0.202

Hey, Escherichia coli TOP10 data for RRIRTRPPRLPRPRPRPFQFPRP : shrunken log2 fold change came out at -0.131

Hey, Escherichia coli TOP10 data for RRIRYRPPRLPRPRPRPYTQPRP : shrunken log2 fold change came out at -0.273

Hey, Escherichia coli TOP10 data for RRIRCRPPRLPRPRPRPQPNPRP : shrunken log2 fold change came out at 0.0742

Hey, Escherichia coli TOP10 data for RRIRQRPPRLPRPRPRPHFSPRP : shrunken log2 fold change came out at -0.508

Hey, Escherichia coli TOP10 data for RRIRMRPPRLPRPRPRPIVIPRP : shrunken log2 fold change came out at -0.0284

Hey, Escherichia coli TOP10 data for RRIRSRPPRLPRPRPRPDEWPRP : shrunken log2 fold change came out at -0.00195

Hey, Escherichia coli TOP10 data for RRIRTRPPRLPRPRPRPRQCPRP : shrunken log2 fold change came out at 0.153

Hey, Escherichia coli TOP10 data for RRIRKRPPRLPRPRPRPTDHPRP : shrunken log2 fold change came out at 0.375

Hey, Escherichia coli TOP10 data for RRIRMRPPRLPRPRPRPPCEPRP : shrunken log2 fold change came out at 1.11

Hey, Escherichia coli TOP10 data for RRIRRRPPRLPRPRPRPLNIPRP : shrunken log2 fold change came out at -0.651

Hey, Escherichia coli TOP10 data for RRIRHRPPRLPRPRPRPFMNPRP : shrunken log2 fold change came out at -0.0862

Hey, Escherichia coli TOP10 data for RRIRVRPPRLPRPRPRPRHVPRP : shrunken log2 fold change came out at 0.0785

Hey, Escherichia coli TOP10 data for RRIRPRPPRLPRPRPRPGQQPRP : shrunken log2 fold change came out at 0.167

Hey, Escherichia coli TOP10 data for RRIRVRPPRLPRPRPRPIKTPRP : shrunken log2 fold change came out at 0.059

Hey, Escherichia coli TOP10 data for RRIRCRPPRLPRPRPRPEKMPRP : shrunken log2 fold change came out at 0.0239

Hey, Escherichia coli TOP10 data for RRIRMRPPRLPRPRPRPLNHPRP : shrunken log2 fold change came out at -0.0957

Hey, Escherichia coli TOP10 data for RRIRSRPPRLPRPRPRPCNPPRP : shrunken log2 fold change came out at -0.212

Hey, Escherichia coli TOP10 data for RRIRMRPPRLPRPRPRPSDFPRP : shrunken log2 fold change came out at -0.764

Hey, Escherichia coli TOP10 data for RRIRMRPPRLPRPRPRPIHNPRP : shrunken log2 fold change came out at -0.58

Hey, Escherichia coli TOP10 data for RRIRPRPPRLPRPRPRPWKTPRP : shrunken log2 fold change came out at -0.225

Hey, Escherichia coli TOP10 data for RRIRARPPRLPRPRPRPANVPRP : shrunken log2 fold change came out at -0.0645

Hey, Escherichia coli TOP10 data for RRIRMRPPRLPRPRPRPCVRPRP : shrunken log2 fold change came out at 0.0764
